Data origin: a protein production outcome set (Wang et al. 2014)

Test: label from the status in PepcDB records
assay.metric: protein production

MAHHHHHHSLDAAAATLPRKSGSVDRLVRLAEADMAGVNRLITDRMQSDVAIIPALAEHLIAAGGKRLRPLMTVAAARLAGADNDHFQKLAAAVEFIHTATLLHDDVVDGSQLRRGKVAAHLIWGGAQSVLVGDFLFARAFELMVETNSMKALEILARASRVIAEGEVLQLMRSHDLNLSQAVYLEIIQAKTAELFAAASEAGAVSAGVDVAKSEALRDYGLNLGLAFQLADDALDYGGATETLGKNAGDDFREGKATLPLLLAIARSGPREAEFWERAIGRREQTEADFRRARELIIGSGALDATLDLAADYADKAKAALAMFPANDWREALEELADFAVSRRA ... not failed
MHPVKALKQGVKNGTMPIIARFYGIIIKMFFNEHLPPHFHALYGEYNAIFNINTLEMIEGDMPLRARKLVVEWAENHQKELEIMWETKEFKQLPGLELEHHHHHH ... not failed

====

Assay: label from the status in PepcDB records
assay.metric: protein production

MTKILYMVVPCYNEELVLDETSERLKAKYEQLISNNIISPKSRVVYVNDGSKDKTWEKIQEKHNENPMFSGINLSRNRGHQNALLAGLMTVRNLADCVISMDADLQDDINAIDEMLEKFENENCDIVYGVRDNRDTDTVFKRRTAGAFYKLMQGLGSQSVPNHADFRLMSRRALDGLAQFPEQNLFLRGMVPLVGYKSDIVYYKRGERFAGESKYPLKKMISFALDGITSTSAAPMRLIFWIGLIWFLLAIVGAIYIIARHFINGSDVAGWASTMLAIIGFGGANLLALGVIGEYIGKIFLEVKQRPRYLIEDFINED ... failed
MEIQEMAKRFSPEFKQQAIDYALSNSHEPIATIAQKLGVGYSTLDKWIREANPVGSSKRQLSPEQQRILELEKEVKQLREANDILKKAHVYFLTDHAKKSTR ... failed

====

Test: label from the status in PepcDB records
assay.metric: protein production

Field: example entries. Status: answers known.
MAMPEIDALLGLSFCLYFFDNKQHKLPHIHVKYGSYELIIAIETGECLEGYLPNKQRKRAENHILEHREQLMVMWNKAVNGENPGKLGDLCLEHHHHHH ... failed
MKKAVFSTLVIGLLSFQAHADYVAQPQSIAAQAARYSVMSIPELTQAAKSGQAGAQFYLGAHYQHGKNIPKDDKQAFTWFKAAADQGLSPAQLNVGRMYADGVGVAKNEAMARKYFEKAASNGDNRASYNLAMMEEQKKNYQGAYQWYELSTRDGMLDNKVINMSQSKKTALAANLTQDQIRQAVDRADKWIQAQ ... failed
MKIIFSASPANRAAAYALRQAVFVEERGISADVEFDVKDTDQCEYAVLYLQPDLPITTLRLEPQADHVMRFGRVCTRKAYRGHGWGRQLLTAAEEWATQRGFTHGEIHGELTAQRFYELCGYRVTAGPYDEDGAPVVIMHKQLL ... not failed
MDSITQAALGASIAGAVAGKTLGRSALLTGALLGTLPDLDVVIDYGTAVANFTQHRGFSHSLFILAPLSLLIAWGLWRWKPLISYQRWLALVGLILITHPLLDAFTTYGTQLFWPIGPPVAINSIFIIDPLYTLPLLAGCLAFLYRPPASRTVAAGLLVSSLYLGWTLIAQQIITDRVRPALANAGMEQAALMVQPMPFNTVLWRATAVSAGQRIEVVTGFLDASDELVLERFPRQPELARLVAELPEARRLEWFTGGFLDYQQNGTQITATDIRLGIPGAHPFTFILAETAEDGLQPLASDRLPRPALNRAALPLLWDRMTGQVPVLCLATLSVPNHGNSC ... failed

The sequence listed as "MKILVVSGFLGAGKTTFIRTLAERTKKDFAVMENEYGAVNVDGDLLEQTNDLNIWELTEGCICCSMQNDFATSILTIANTVDPEYLIVEPTGVGMLSKIIENIQKIEYERITLLEPLTILDGTMYDRCMFEFSEICEDQIQSAGRILVSKMEYAAENERCSLKQKLIALNPEAEICVSHYTEQGDDWWASLLTSYLDKEIPMKEERELDLENLGLTEASLQSEQELILFLQGVVSGVFGDICRAKGYLPAGNGWLRFDVTDRTYSVTGIDTMPEAKAIFIGRQLKRNWLREVLQKELYVEVSKRAIRPMRKRSEVLEHHHHHH" has a reported protein production of failed

The sequence listed as "FAFVYEAQDVGSGREYALKRLLSNEEEKNRAIIQEVCFMKKLSGHPNIVQFCSAASIGKEESDTGQAEFLLLTELCKGQLVEFLKKMESRGPLSCDTVLKIFYQTCRAVQHMHRQKPPIIHRDLKVENLLLSNQGTIKLCDFGSATTISHYPDYSWSAQRRALVEEEITRNTTPMYRTPEIIDLYSNFPIGEKQDIWALGCILYLLCFRQHPFEDGAKLRIVNGKYSIPPHDTQYTVFHSLIRAMLQVNPEERLSIAEVVHQLQEIAAARNVNPKSPITELLEQNGGYGSAT" has a reported protein production of failed

The sequence listed as "GLPAVDSEILEMPPEKADGVVEGIDVNGPKAQLMLRYPDGKREQITLPEQAKLLALVKHVQSKGYPNERFELLTNFPRRKLSHLDYDITLQEAGLCPQETVFVQERN" has a reported protein production of failed
